Catalogue of viability, T/C readings, one per entry.
Tested on: KRAS PDC tumor spheroids (HUVEC+MSC), viability
Assay: Anticancer human tumor 254851-301-R-J1-PDC patient-derived colon carcinoma cell line growth inhibition [KRAS2]
Settings: second compound 0.316 µM; first compound 0.000316 µM; hits give low values
Description: Multicellular complex tumor spheroid response to RAS pathway inhibitors in combination with a targeted agents in patient-derived cell lines with oncogenic KRAS variants from multiple cancer types A high-throughput screen of multi-cell type tumor spheroids was designed to identify active combinations of targeted small molecules and KRAS pathway inhibitors. […] Compounds. […] If the clinical Cmax for an agent had not been determined, the highest concentration tested was 10 microM. […]
Quantity Name: viability, T/C (%)

CC(=O)Nc1cccc(-n2c(=O)n(C3CC3)c(=O)c3c(Nc4ccc(I)cc4F)n(C)c(=O)c(C)c32)c1 + C=CC(=O)N1CCN(c2nc(=O)n(-c3c(C)ccnc3C(C)C)c3nc(-c4c(O)cccc4F)c(F)cc23)C(C)C1 ... 103
CC(C)n1nc(-c2ccc3oc(N)nc3c2)c2c(N)ncnc21 + C=CC(=O)N1CCN(c2nc(OCC3CCCN3C)nc3c2CCN(c2cccc4cccc(C)c24)C3)CC1CC#N ... 111
CC(=O)Nc1cccc(-n2c(=O)n(C3CC3)c(=O)c3c(Nc4ccc(I)cc4F)n(C)c(=O)c(C)c32)c1 + CNCc1ccccc1-c1csc(C(C)Nc2nc(C)nc3cc(OC)c(OC)cc23)c1 ... 99.8
Cn1ncnc1[C@H]1c2n[nH]c(=O)c3cc(F)cc(c23)N[C@@H]1c1ccc(F)cc1 + C=CC(=O)N1CCN(c2nc(=O)n(-c3c(C)ccnc3C(C)C)c3nc(-c4c(O)cccc4F)c(F)cc23)C(C)C1 ... 97.5

* * *

test system: KRAS PDC tumor spheroids (HUVEC+MSC), viability; assay: Anticancer human tumor 254851-301-R-J1-PDC cell line growth inhibition [KRAS2]; conditions: second compound 3.16 µM; first compound 0.01 µM; hits give low values;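 also: spheroids exposed to compounds for seven days before readout; 100% = DMSO vehicle control luminescence of the spheroids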
Quantity Name: viability, T/C (%)

CC(=O)OC12COC1CC(O)C1(C)C(=O)C(O)C3=C(C)C(OC(=O)C(O)C(NC(=O)OC(C)(C)C)c4ccccc4)CC(O)(C(OC(=O)c4ccccc4)C21)C3(C)C (stereo not given) + CC1OCC2(CCN(c3cnc(Sc4ccnc(N)c4Cl)c(N)n3)CC2)C1N ... 73.3
CN(C)C/C=C/C(=O)Nc1cc2c(Nc3ccc(F)c(Cl)c3)ncnc2cc1O[C@H]1CCOC1 + C=CC(=O)N1CCN(c2nc(OCC3CCCN3C)nc3c2CCN(c2cccc4cccc(C)c24)C3)CC1CC#N ... 54.6
Cn1ncnc1[C@H]1c2n[nH]c(=O)c3cc(F)cc(c23)N[C@@H]1c1ccc(F)cc1 + C=CC(=O)N1CCN(c2nc(OCC3CCCN3C)nc3c2CCN(c2cccc4cccc(C)c24)C3)CC1CC#N ... 47.8
CC1COCCN1c1cc(-c2ccnn2C)c2ccnc(-c3ccn[nH]3)c2n1 (stereo not given) + CNCc1ccccc1-c1csc(C(C)Nc2nc(C)nc3cc(OC)c(OC)cc23)c1 ... 44.1
CN(C)C/C=C/C(=O)Nc1cc2c(Nc3ccc(F)c(Cl)c3)ncnc2cc1O[C@H]1CCOC1 + CNCc1ccccc1-c1csc(C(C)Nc2nc(C)nc3cc(OC)c(OC)cc23)c1 ... 75.1

The measurements presented in this section are drawn from PubChem BioAssay AID1963868.
